Just for reference, paper PMC8776063 is where these values come from.

Experimental Target: PAK1 (Homo sapiens, UniProt Q13153)
Construct: purchased in-house thermal shift (DSF) kinase panel (SGC Frankfurt); Promega NanoBRET for AURKA/B/C
Sequence (Q13153 249-545): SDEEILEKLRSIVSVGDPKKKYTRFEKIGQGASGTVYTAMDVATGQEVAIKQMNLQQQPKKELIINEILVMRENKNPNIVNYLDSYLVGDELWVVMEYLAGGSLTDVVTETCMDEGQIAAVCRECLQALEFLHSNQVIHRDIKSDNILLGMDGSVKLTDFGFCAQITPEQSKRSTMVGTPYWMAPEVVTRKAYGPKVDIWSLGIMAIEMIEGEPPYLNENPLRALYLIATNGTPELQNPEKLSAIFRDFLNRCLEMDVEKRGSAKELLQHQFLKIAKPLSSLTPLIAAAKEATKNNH
Experiment Summary: Thermal shift assay
Format: binding
Conditions Used: compound 10 µM; n = 3; read-out: ΔTm PAK1
Property Label: ΔTm at 10 µM (°C)
Write the answer as a number in °C, unit excluded.

Query ΔTm at 10 µM for `NC(=O)Cc1ccc(Nc2ncc(F)c(Nc3ccc(C(=O)Nc4ccccc4Cl)cc3)n2)cc1`
0.7

Specify reported ΔTm at 10 µM for the compound shown: `O=C(Cc1ccc(Nc2ncc(F)c(Nc3ccc(C(=O)Nc4ccccc4Cl)cc3)n2)cc1)NCCN1CCOCC1`
0.6

Tell me ΔTm at 10 µM reported for `CCN1CCN(C(=O)Cc2ccc(Nc3ncc(F)c(Nc4ccc(C(=O)Nc5ccccc5)cc4)n3)cc2)CC1`
0.5

In one line, give reported ΔTm at 10 µM of the entry `CCN1CCN(C(=O)Cc2ccc(Nc3ncc(F)c(Nc4ccc(C(=O)O)cc4)n3)cc2)CC1` .
0.2
